- recorded conditions: in isopropanol, 303.15 K

| sample smiles | solubility (mole fraction) |
| --- | --- |
| NC(=O)N/N=C/c1ccc([N+](=O)[O-])o1 | 0.000216 |

----------
- recorded conditions: in acetonitrile, 308.15 K

| sample smiles | solubility (mole fraction) |
| --- | --- |
| NC(=O)N/N=C/c1ccc([N+](=O)[O-])o1 | 0.000247 |

----------
- recorded conditions: in acetone, 303.15 K

| sample smiles | solubility (mole fraction) |
| --- | --- |
| NC(=O)N/N=C/c1ccc([N+](=O)[O-])o1 | 0.000568 |

----------
- recorded conditions: in isopropanol, 293.15 K

| sample smiles | solubility (mole fraction) |
| --- | --- |
| NC(=O)N/N=C/c1ccc([N+](=O)[O-])o1 | 0.000131 |

----------
- recorded conditions: in DMF, 308.15 K
measurement label: solubility (mole fraction)

| sample smiles | measured number |
| --- | --- |
| NC(=O)N/N=C/c1ccc([N+](=O)[O-])o1 | 0.0289 |

----------
- recorded conditions: in n-propanol, 313.15 K
measurement label: solubility (mole fraction)

| sample smiles | measurement label | measured number |
| --- | --- | --- |
| NC(=O)N/N=C/c1ccc([N+](=O)[O-])o1 | solubility (mole fraction) | 0.000368 |

----------
- recorded conditions: in ethanol, 278.15 K

| sample smiles | solubility (mole fraction) |
| --- | --- |
| NC(=O)N/N=C/c1ccc([N+](=O)[O-])o1 | 6.97e-05 |

----------
- recorded conditions: in acetonitrile, 278.15 K

| sample smiles | solubility (mole fraction) |
| --- | --- |
| NC(=O)N/N=C/c1ccc([N+](=O)[O-])o1 | 8.46e-05 |

----------
- recorded conditions: in water, 293.15 K

| sample smiles | solubility (mole fraction) |
| --- | --- |
| NC(=O)N/N=C/c1ccc([N+](=O)[O-])o1 | 2.29e-05 |

----------
- recorded conditions: in acetonitrile, 313.15 K

| sample smiles | solubility (mole fraction) |
| --- | --- |
| NC(=O)N/N=C/c1ccc([N+](=O)[O-])o1 | 0.000288 |

----------
- recorded conditions: in ethanol, 298.15 K

| sample smiles | solubility (mole fraction) |
| --- | --- |
| NC(=O)N/N=C/c1ccc([N+](=O)[O-])o1 | 0.000143 |

----------
- recorded conditions: in formamide, 293.15 K

| sample smiles | solubility (mole fraction) |
| --- | --- |
| NC(=O)N/N=C/c1ccc([N+](=O)[O-])o1 | 0.00239 |

----------
- recorded conditions: in DMF, 303.15 K
measurement label: solubility (mole fraction)

| sample smiles | measurement label | measured number |
| --- | --- | --- |
| NC(=O)N/N=C/c1ccc([N+](=O)[O-])o1 | solubility (mole fraction) | 0.028 |

----------
- recorded conditions: in DMF, 313.15 K

| sample smiles | solubility (mole fraction) |
| --- | --- |
| NC(=O)N/N=C/c1ccc([N+](=O)[O-])o1 | 0.0305 |

----------
- recorded conditions: in acetone, 308.15 K
measurement label: solubility (mole fraction)

| sample smiles | measured number |
| --- | --- |
| NC(=O)N/N=C/c1ccc([N+](=O)[O-])o1 | 0.000647 |

----------
- recorded conditions: in formamide, 313.15 K
measurement label: solubility (mole fraction)

| sample smiles | measurement label | measured number |
| --- | --- | --- |
| NC(=O)N/N=C/c1ccc([N+](=O)[O-])o1 | solubility (mole fraction) | 0.00364 |

----------
- recorded conditions: in n-propanol, 308.15 K
measurement label: solubility (mole fraction)

| sample smiles | measurement label | measured number |
| --- | --- | --- |
| NC(=O)N/N=C/c1ccc([N+](=O)[O-])o1 | solubility (mole fraction) | 0.000285 |

----------
- recorded conditions: in acetonitrile, 288.15 K

| sample smiles | solubility (mole fraction) |
| --- | --- |
| NC(=O)N/N=C/c1ccc([N+](=O)[O-])o1 | 0.000123 |

----------
- recorded conditions: in formamide, 303.15 K

| sample smiles | solubility (mole fraction) |
| --- | --- |
| NC(=O)N/N=C/c1ccc([N+](=O)[O-])o1 | 0.00298 |

----------
- recorded conditions: in acetonitrile, 293.15 K
measurement label: solubility (mole fraction)

| sample smiles | measured number |
| --- | --- |
| NC(=O)N/N=C/c1ccc([N+](=O)[O-])o1 | 0.000146 |
